- Tested on: biotinyl-Val-oxazolone
- assay-details: self-aminoacylation, catalytic enhancement (BVO) (fold over background); higher = more active; k-Seq, kA / k0A0; sequences stand for … in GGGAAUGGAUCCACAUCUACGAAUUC…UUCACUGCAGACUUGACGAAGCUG
Fewer inactive variants are shown than the library holds.
Please use Fulfilled whenever self-aminoacylation is not below 1, and Not fulfilled whenever it is.

The examples below pair each entry with its known result.
>>> category("CUACUUCGGACAAUCGGUCUG [Fam1A.1 aminoacylation ribozyme variant]")
"Not fulfilled"
>>> category("CUACUUCAAACAGUCUGUCUG [Fam1A.1 aminoacylation ribozyme variant]")
"Not fulfilled"
>>> category("CUACUUUAAACAAUCGGUGUG [Fam1A.1 aminoacylation ribozyme variant]")
"Not fulfilled"

IN: Could you please find out whether CCACCCUUCAAGAAAUCGGUC [Fam1B.1 aminoacylation ribozyme variant] has self-aminoacylation that meets 1 or exceeds it?
OUT: Fulfilled

IN: Could you please find out whether AGUGCCCUGGUCAUCGAGUGA [Fam2.1 aminoacylation ribozyme variant] has self-aminoacylation that meets 1 or exceeds it?
OUT: Fulfilled

IN: Could you please find out whether AUUACCCUGGACAUCGAGUGC [Fam2.1 aminoacylation ribozyme variant] has self-aminoacylation that meets 1 or exceeds it?
OUT: Not fulfilled

IN: Could you please find out whether AAUCACCAAGGUCAUCGGGUG [Fam2.2 aminoacylation ribozyme variant] has self-aminoacylation that meets 1 or exceeds it?
OUT: Fulfilled

IN: Could you please find out whether AAUUUUGCUAAUAGUCGCGAG [Fam3.1 aminoacylation ribozyme variant] has self-aminoacylation that meets 1 or exceeds it?
OUT: Fulfilled

IN: Could you please find out whether ACACUCUUCAAGCAAUCGGUC [Fam1B.1 aminoacylation ribozyme variant] has self-aminoacylation that meets 1 or exceeds it?
OUT: Fulfilled

IN: Could you please find out whether AUUACCCUGGACAUCGUGUGA [Fam2.1 aminoacylation ribozyme variant] has self-aminoacylation that meets 1 or exceeds it?
OUT: Fulfilled

IN: Could you please find out whether AUUCAGCUAGUUCAUCGGGUG [Fam2.2 aminoacylation ribozyme variant] has self-aminoacylation that meets 1 or exceeds it?
OUT: Fulfilled

IN: Could you please find out whether AAGGUUGCUAAUAGUCGCAAA [Fam3.1 aminoacylation ribozyme variant] has self-aminoacylation that meets 1 or exceeds it?
OUT: Fulfilled

IN: Could you please find out whether CCAGACUUCAAGCAAACGGUC [Fam1B.1 aminoacylation ribozyme variant] has self-aminoacylation that meets 1 or exceeds it?
OUT: Not fulfilled

IN: Could you please find out whether AGUACCAUGGUCAUCGAGUGA [Fam2.1 aminoacylation ribozyme variant] has self-aminoacylation that meets 1 or exceeds it?
OUT: Fulfilled

IN: Could you please find out whether AUUCACCUCCGUCAUCGGGUG [Fam2.2 aminoacylation ribozyme variant] has self-aminoacylation that meets 1 or exceeds it?
OUT: Fulfilled

IN: Could you please find out whether AUUCACGUAGGUCAUGGGGUG [Fam2.2 aminoacylation ribozyme variant] has self-aminoacylation that meets 1 or exceeds it?
OUT: Fulfilled

IN: Could you please find out whether CCGCACUUCAAGCAAUCGUUC [Fam1B.1 aminoacylation ribozyme variant] has self-aminoacylation that meets 1 or exceeds it?
OUT: Not fulfilled

IN: Could you please find out whether CUACGUCAAACAUUCGGUCUG [Fam1A.1 aminoacylation ribozyme variant] has self-aminoacylation that meets 1 or exceeds it?
OUT: Fulfilled

* * *

- Tested on: biotinyl-Val-oxazolone
- assay-details: self-aminoacylation, catalytic enhancement (BVO) (fold over background); higher = more active; k-Seq, kA / k0A0; sequences stand for … in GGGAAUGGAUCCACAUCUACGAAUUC…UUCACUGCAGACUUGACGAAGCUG
This sample holds only a part of the variants without activity.
Please use yes whenever self-aminoacylation is not below 2, and no whenever it is.

The examples below pair each entry with its known result.
>>> category("CCACAUUUCAAGUAAUCGGUC [Fam1B.1 aminoacylation ribozyme variant]")
"no"
>>> category("AUUCACCUGGGUCAUCGCGUG [Fam2.2 aminoacylation ribozyme variant]")
"yes"
>>> category("AUUACCCUGGUCAUGGAGGGA [Fam2.1 aminoacylation ribozyme variant]")
"no"
>>> category("AUUACCCUGGUGAUCGAGUCA [Fam2.1 aminoacylation ribozyme variant]")
"no"
>>> category("ACUACCCUGGUCAUCGUGUGA [Fam2.1 aminoacylation ribozyme variant]")
"yes"

IN: Could you please find out whether UUACUUUAAACAAUCGGUCUG [Fam1A.1 aminoacylation ribozyme variant] has self-aminoacylation that meets 2 or exceeds it?
OUT: no

IN: Could you please find out whether CUACUUCAAACAAUUGGACUG [Fam1A.1 aminoacylation ribozyme variant] has self-aminoacylation that meets 2 or exceeds it?
OUT: no

IN: Could you please find out whether AAGUCUGCUAAUAGUCGCCAG [Fam3.1 aminoacylation ribozyme variant] has self-aminoacylation that meets 2 or exceeds it?
OUT: no

IN: Could you please find out whether CUACACUUAAAGCAAUCGGUC [Fam1B.1 aminoacylation ribozyme variant] has self-aminoacylation that meets 2 or exceeds it?
OUT: no

IN: Could you please find out whether CCACACUUCAAGAAACCGGUC [Fam1B.1 aminoacylation ribozyme variant] has self-aminoacylation that meets 2 or exceeds it?
OUT: no

IN: Could you please find out whether AAGUUUGCUAAUAGUGGCAAC [Fam3.1 aminoacylation ribozyme variant] has self-aminoacylation that meets 2 or exceeds it?
OUT: no

IN: Could you please find out whether GUACUUCAAACAAUCGGCCUG [Fam1A.1 aminoacylation ribozyme variant] has self-aminoacylation that meets 2 or exceeds it?
OUT: yes

IN: Could you please find out whether AUUCACCUUGGUCAACGGGUG [Fam2.2 aminoacylation ribozyme variant] has self-aminoacylation that meets 2 or exceeds it?
OUT: yes

IN: Could you please find out whether GUUUACCUAGGUCAUCGGGUG [Fam2.2 aminoacylation ribozyme variant] has self-aminoacylation that meets 2 or exceeds it?
OUT: yes

IN: Could you please find out whether AAGUUAGCUUAUAGUCGCAAG [Fam3.1 aminoacylation ribozyme variant] has self-aminoacylation that meets 2 or exceeds it?
OUT: no

IN: Could you please find out whether ACUACCCUGGUCAACGAGUGA [Fam2.1 aminoacylation ribozyme variant] has self-aminoacylation that meets 2 or exceeds it?
OUT: yes

IN: Could you please find out whether AUUCCCCUACGUCAUCGGGUG [Fam2.2 aminoacylation ribozyme variant] has self-aminoacylation that meets 2 or exceeds it?
OUT: yes

IN: Could you please find out whether AUUAGACUGGUCAUCGAGUGA [Fam2.1 aminoacylation ribozyme variant] has self-aminoacylation that meets 2 or exceeds it?
OUT: yes

IN: Could you please find out whether AUUACCCAGGUCAUCGAGUGG [Fam2.1 aminoacylation ribozyme variant] has self-aminoacylation that meets 2 or exceeds it?
OUT: no

IN: Could you please find out whether AUUACCCGGGUCAUCGAGUAA [Fam2.1 aminoacylation ribozyme variant] has self-aminoacylation that meets 2 or exceeds it?
OUT: no

IN: Could you please find out whether AUUCACCUUGGUCGUCGGGUG [Fam2.2 aminoacylation ribozyme variant] has self-aminoacylation that meets 2 or exceeds it?
OUT: no

IN: Could you please find out whether UUUCACUUAGGUCAUCGGGUG [Fam2.2 aminoacylation ribozyme variant] has self-aminoacylation that meets 2 or exceeds it?
OUT: yes

* * *

- Test system: biotinyl-Phe-oxazolone
- assay-details: self-aminoacylation, catalytic enhancement (BFO) (fold over background); higher = more active; k-Seq, kA / k0A0; sequences stand for … in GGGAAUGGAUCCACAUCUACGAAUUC…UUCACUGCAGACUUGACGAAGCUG
This sample holds only a part of the variants without activity.
The reader will find reported self-aminoacylation values listed item by item below.
Would you mind answering with just the numeric figure?

Some solved cases for reference:
>>> observed_measurement("CUACUUCAAACAUUAGGUCUG [Fam1A.1 aminoacylation ribozyme variant]")
0.696
>>> observed_measurement("UGUACCCUGGUCAUCGAGUGA [Fam2.1 aminoacylation ribozyme variant]")
10.3
>>> observed_measurement("AAGGUUGCUCAUAGUCGCAAG [Fam3.1 aminoacylation ribozyme variant]")
4.12
>>> observed_measurement("CUACCUCAAACAUUCGGUCUG [Fam1A.1 aminoacylation ribozyme variant]")
10.3

Okay, now this sequence:
IN: Record UUUCACCUAGGUCAUCGGGUA [Fam2.2 aminoacylation ribozyme variant] : what is its self-aminoacylation with biotinyl-Phe-oxazolone?
OUT: 184

* * *

The reader will find reported self-aminoacylation values listed item by item below.
- Test system: biotinyl-Trp-oxazolone
- assay-details: self-aminoacylation, catalytic enhancement (BWO) (fold over background); higher = more active; k-Seq, kA / k0A0; sequences stand for … in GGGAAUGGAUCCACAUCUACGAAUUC…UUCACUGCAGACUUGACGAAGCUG
This sample holds only a part of the variants without activity.
Would you mind answering with just the numeric figure?

>>> observed_measurement("AUUCCCCUAGGUCAUCGAGUG [Fam2.2 aminoacylation ribozyme variant]")
12.6

IN: self-aminoacylation for AAGUUAGCUAACAGUCGCAAG [Fam3.1 aminoacylation ribozyme variant] ?
OUT: 1.56

IN: self-aminoacylation for CUACUCCAAACAAUCGGUCUG [Fam1A.1 aminoacylation ribozyme variant] ?
OUT: 1.95

IN: self-aminoacylation for AUUCAGCUAGGUUAUCGGGUG [Fam2.2 aminoacylation ribozyme variant] ?
OUT: 8.86

IN: self-aminoacylation for AUUACCCUUGUCAACGAGUGA [Fam2.1 aminoacylation ribozyme variant] ?
OUT: 7.03

IN: self-aminoacylation for AAGUAUGCUAGUAGUCGCAAG [Fam3.1 aminoacylation ribozyme variant] ?
OUT: 1.12

IN: self-aminoacylation for CUACUUCAGACAAUCGGUCCG [Fam1A.1 aminoacylation ribozyme variant] ?
OUT: 1.38

IN: self-aminoacylation for AGUCACCUAGGUCAUCCGGUG [Fam2.2 aminoacylation ribozyme variant] ?
OUT: 7.84

IN: self-aminoacylation for AAGUUUGCUAGUAGUCGCGAG [Fam3.1 aminoacylation ribozyme variant] ?
OUT: 2.01

All figures here come from the supplement of paper PMC9233669.
